A collection of compounds and their measured growth
# Test system: SF-295 CNS
# ASSAY_OVERVIEW: NCI-60 one-dose screen, 48 h (100 = growth as untreated, 0 = no growth, -100 = all killed)
# CONDITION_NOTES: 10 µM unless noted
# Experimental: Cells are grown in 96 well plates and exposed to the test compound for 48 hours. Compounds are tested at a single concentration, which is 10^-5 M for most compounds. The reported endpoint is percent growth (GI% or GIPRCNT), where numbers from 0 - 100% represent growth inhibition, and numbers from -100% - 0 represent cell death. For example, a value of 40 represents 60% growth inhibition. A value of 0 means no net growth occurred over the course of the experiment. […]
The panel holds about 83,000 compounds, 20% with a hit somewhere; the sample as a whole holds those more often.
PROPERTY: growth (%)

> print(dat)
                              smiles.string  reported.value
1                    Cc1cc2nc(CN)[nH]c2cc1C            98.1
2  CCc1c(C)c2ccc(O)c(-c3cc(-c4ccccc4)c(C#N)c(=O)[nH]3)c2oc1=O            97.4
3  COc1ccc(-c2cc(-c3cc4ccccc4oc3=O)n(-c3ccccc3)n2)cc1            94.7
4  COc1cc(/C=C2\CN(C(=O)OC(C)(C)C)C/C(=C\c3ccc(O)c(OC)c3)C2=O)ccc1O             101
5  CCNCCCn1c2c(c3ccc(Cl)cc3c1=O)C(=O)c1cc(OC)cnc1-2            15.5
